Target Of Assay: MMP-9 (Homo sapiens)
Construct: endogenous protein secreted after TPA treatment and purified from conditioned medium
Sequence (P14780 107-707 limits assumed): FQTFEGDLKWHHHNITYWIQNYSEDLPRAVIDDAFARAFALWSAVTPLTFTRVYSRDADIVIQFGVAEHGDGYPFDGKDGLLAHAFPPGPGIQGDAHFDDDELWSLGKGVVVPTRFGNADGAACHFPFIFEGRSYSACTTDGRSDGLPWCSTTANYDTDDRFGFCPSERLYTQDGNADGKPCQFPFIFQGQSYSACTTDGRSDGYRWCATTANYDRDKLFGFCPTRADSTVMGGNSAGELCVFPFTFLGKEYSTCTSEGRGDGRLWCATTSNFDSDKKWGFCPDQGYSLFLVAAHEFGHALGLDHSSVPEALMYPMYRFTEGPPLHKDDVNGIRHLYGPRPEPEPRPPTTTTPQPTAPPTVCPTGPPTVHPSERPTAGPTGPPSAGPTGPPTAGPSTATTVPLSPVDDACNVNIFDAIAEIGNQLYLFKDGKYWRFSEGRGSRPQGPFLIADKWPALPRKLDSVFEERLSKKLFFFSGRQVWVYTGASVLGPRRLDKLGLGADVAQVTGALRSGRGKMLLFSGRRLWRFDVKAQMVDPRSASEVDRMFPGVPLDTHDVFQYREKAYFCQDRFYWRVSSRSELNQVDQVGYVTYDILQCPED
Protocol Description: Assay for inhibitory activity against MMP-9
Readings of IC50 for the listed molecules
Measurement Label: IC50

1) O=C(O)[C@@H](Cc1ccccc1)NS(=O)(=O)c1ccc(-n2nnc(-c3ccc(F)cc3)n2)cc1 [Compound 105] | 304 nM
2) CCc1ccc(-c2nnn(-c3ccc(S(=O)(=O)N[C@@H](C(=O)O)C(C)C)cc3)n2)cc1 [Compound 107] | 8.25 nM
3) CC(C)[C@@H](NS(=O)(=O)c1ccc(-c2ncc(-c3ccccc3)o2)s1)C(=O)O [Compound 98] | 787 nM
4) CCc1ccc(-c2nnn(-c3ccc(S(=O)(=O)N[C@H](CC(C)C)C(=O)O)cc3)n2)cc1 [Compound 113] | 71.8 nM
5) CC(C)[C@@H](NS(=O)(=O)c1ccc(-n2nnc(-c3ccc(C(F)(F)F)cc3)n2)cc1)C(=O)O [Compound 104] | 18.7 nM
6) Cc1ccc(C#Cc2ccc(S(=O)(=O)N[C@H](Cc3ccccc3)C(=O)O)s2)s1 [Compound 87] | 10 nM
7) CCOc1ccc(-c2nnn(-c3ccc(S(=O)(=O)N[C@@H](C(=O)O)C(C)C)cc3)n2)cc1 [Compound 118] | 61.6 nM

----------
Target Of Assay: MMP-2 (Homo sapiens, UniProt P08253)
Sequence (P08253 110-660): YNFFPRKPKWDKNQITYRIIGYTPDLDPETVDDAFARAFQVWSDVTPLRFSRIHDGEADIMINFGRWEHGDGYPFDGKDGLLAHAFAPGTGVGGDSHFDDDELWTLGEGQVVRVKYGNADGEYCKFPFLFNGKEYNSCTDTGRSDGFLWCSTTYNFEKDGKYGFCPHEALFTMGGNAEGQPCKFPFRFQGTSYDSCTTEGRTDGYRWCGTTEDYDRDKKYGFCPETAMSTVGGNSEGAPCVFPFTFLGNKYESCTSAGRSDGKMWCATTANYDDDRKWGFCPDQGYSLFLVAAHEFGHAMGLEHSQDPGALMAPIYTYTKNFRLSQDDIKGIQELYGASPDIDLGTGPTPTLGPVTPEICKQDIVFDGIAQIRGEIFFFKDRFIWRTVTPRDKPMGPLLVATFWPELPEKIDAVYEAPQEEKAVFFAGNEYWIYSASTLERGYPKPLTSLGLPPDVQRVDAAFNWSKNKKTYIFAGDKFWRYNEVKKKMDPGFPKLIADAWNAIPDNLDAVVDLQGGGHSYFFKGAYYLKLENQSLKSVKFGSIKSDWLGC
Readings of IC50 for the listed compounds
Measurement Label: IC50

1. CC(C)[C@@H](NS(=O)(=O)c1ccc(-n2nnc(-c3ccc(F)cc3)n2)cc1)C(=O)O | 28.3 nM
2. CSc1ccc(-c2nnn(-c3ccc(S(=O)(=O)N[C@@H](C(=O)O)C(C)C)cc3)n2)cc1 | 0.919 nM
3. CC(C)[C@@H](NS(=O)(=O)c1ccc(-c2ncc(-c3ccccc3)o2)s1)C(=O)O | 95.3 nM
